system: Staphylococcus aureus; experiment: Synergistic antibacterial activity against methicillin-resistant Staphylococcus aureus ATCC BAA41 assessed as inhibition of bacterial growth incubated for 24 hrs in presence of methicillin by checker board assay; assay type: functional
reported_metric: MIC
# number then unit; no other words

Field: example entries. Status: answers known.
1. CCCCCNc1cc(/C=C/c2ccc(N(C)C)cc2)[n+](C)c2ccccc12.[I-] 0.5 µg/mL
2. CC1CCN(c2cc(/C=C/c3ccc(N(C)C)cc3)[n+](C)c3ccccc23)CC1.[I-] 2 µg/mL

The molecule identified as `CC1CCN(c2cc(/C=C/c3ccc(N(C)C)cc3)c3ccccc3[n+]2C)CC1.[I-]` registered its MIC at 4 µg/mL

What the record says about `CN(C)c1ccc(/C=C/c2cc(N3CCCCC3)c3ccccc3[n+]2C)cc1.[I-]` : MIC is 2 µg/mL

###

Overview of recorded MIC for various molecules
system: Staphylococcus aureus; experiment: Antibacterial activity against methicillin-resistant Staphylococcus aureus ATCC 43300 assessed as inhibition of bacterial growth incubated for 20 to 24 hrs by broth micro dilution method; type: functional; settings: time 20-24 hrs
The answer is to be given in µg/mL; state only the numeric part.

substance_smiles	assay_system	experimental_result
CCCCCNc1cc(/C=C/c2ccc(N(C)C)cc2)c2ccccc2[n+]1C.[I-]	Staphylococcus aureus	8
CC1CCN(c2cc(/C=C/c3ccc(N(C)C)cc3)c3ccccc3[n+]2C)CC1.[I-]	Staphylococcus aureus	4
CN(C)c1ccc(/C=C/c2cc(N3CCCCC3)[n+](C)c3ccccc23)cc1.[I-]	Staphylococcus aureus	4

Consider `CN(C)c1ccc(/C=C/c2cc(N3CCCC3)[n+](C)c3ccccc23)cc1.[I-]` . Its measured MIC is 16

The value of MIC measured for the molecule `CN(C)c1ccc(/C=C/c2cc(N3CCCCC3)c3ccccc3[n+]2C)cc1.[I-]` turned out to be 1

The recorded MIC for `CCCCNc1cc(/C=C/c2ccc(N(C)C)cc2)[n+](C)c2ccccc12.[I-]` is 4

Notebook: `CCCCNc1cc(/C=C/c2ccc(N(C)C)cc2)c2ccccc2[n+]1C.[I-]` , MIC read as 16

###

# MIC listing for each entry below
test system: Staphylococcus aureus; assay: Antibacterial activity against methicillin-resistant Staphylococcus aureus ATCC 33592 assessed as inhibition of bacterial growth incubated for 20 to 24 hrs by broth micro dilution method; assay type: functional; conditions: time 20-24 hrs
Give the quantity in µg/mL, number only.

Here are 2 molecules together with their reported answers.
1. CN(C)c1ccc(/C=C/c2cc(NCCCc3ccccc3)[n+](C)c3ccccc23)cc1.[I-] 4
2. CC1CCN(c2cc(/C=C/c3ccc(N(C)C)cc3)[n+](C)c3ccccc23)CC1.[I-] 0.5

// sample `CN(C)c1ccc(/C=C/c2cc(N3CCOCC3)c3ccccc3[n+]2C)cc1.[I-]` , its MIC was 64

Quick note, MIC for `CCCNc1cc(/C=C/c2ccc(N(C)C)cc2)[n+](C)c2ccccc12.[I-]` landed at 4

Lab note: `CN(C)c1ccc(/C=C/c2cc(N3CCCCC3)[n+](C)c3ccccc23)cc1.[I-]` gave MIC of 8

Measured MIC of `CN(C)c1ccc(/C=C/c2cc(N3CCOCC3)[n+](C)c3ccccc23)cc1.[I-]` : 64

The measured MIC associated with `CN(C)c1ccc(/C=C/c2cc(N3CCCC3)c3ccccc3[n+]2C)cc1.[I-]` reads 1

Form: molecule = `CC1(C)S[C@@H]2[C@H](NC(=O)[C@H](N)c3ccccc3)C(=O)N2[C@H]1C(=O)O` ; MIC = 64

Field MIC (entry `CN(C)c1ccc(/C=C/c2cc(N3CCCCC3)c3ccccc3[n+]2C)cc1.[I-]` ) reads 1

Value of measured MIC for the entry `CN(C)c1ccc(/C=C/c2cc(N3CCCC3)[n+](C)c3ccccc23)cc1.[I-]` : 16

// field: MIC; key: `CCCCNc1cc(/C=C/c2ccc(N(C)C)cc2)[n+](C)c2ccccc12.[I-]` ; value = 2

Data point: `CN(C)c1ccc(/C=C/c2cc(NCCCc3ccccc3)c3ccccc3[n+]2C)cc1.[I-]` ; MIC = 2

For this molecule ( `CN(C)c1ccc(/C=C/c2cc(NCCCO)[n+](C)c3ccccc23)cc1.[I-]` ), measured MIC is 64

For record `CCCCNc1cc(/C=C/c2ccc(N(C)C)cc2)c2ccccc2[n+]1C.[I-]` the listed MIC is 32
